- target-under-test: T1, ErbB-3 receptor-Ig fusion (human, UniProt P21860 20-643)
- T1 construct: extracellular domain;range 224-C-terminus; also called ErbB-3-Ig; 3/3 homodimer; not shown: human IgG heavy chain constant region from His224 (hinge) on
- T1 sequence (P21860 other isoform, or with tags, fused parts or gaps): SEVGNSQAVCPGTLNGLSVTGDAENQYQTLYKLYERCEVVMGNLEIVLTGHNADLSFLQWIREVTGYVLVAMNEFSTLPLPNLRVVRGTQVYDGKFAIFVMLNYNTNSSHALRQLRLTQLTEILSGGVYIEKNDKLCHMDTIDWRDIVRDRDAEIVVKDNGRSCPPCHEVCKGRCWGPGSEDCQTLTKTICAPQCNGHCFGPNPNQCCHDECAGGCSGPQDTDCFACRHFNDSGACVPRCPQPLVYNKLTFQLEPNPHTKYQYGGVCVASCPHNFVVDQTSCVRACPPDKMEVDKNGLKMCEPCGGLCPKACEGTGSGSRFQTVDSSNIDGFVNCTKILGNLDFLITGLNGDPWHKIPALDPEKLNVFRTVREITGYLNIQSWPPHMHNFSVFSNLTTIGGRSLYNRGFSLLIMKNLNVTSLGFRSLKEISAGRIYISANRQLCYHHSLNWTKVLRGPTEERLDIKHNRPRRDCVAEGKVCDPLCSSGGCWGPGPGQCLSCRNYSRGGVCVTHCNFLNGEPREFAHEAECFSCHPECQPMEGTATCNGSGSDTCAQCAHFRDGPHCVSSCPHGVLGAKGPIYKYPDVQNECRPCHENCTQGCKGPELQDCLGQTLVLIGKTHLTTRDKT
- experiment-description: phage ELISA; soluble ErbB-3-Ig as competitor
measure: pEC50
pEC50 is a log-scale quantity: -log10 of the concentration expressed in molar.

Some solved entries appear below for comparison.
{"binder": "HRG-β1 177-244 K200A on phage (ligand, also called K2OO; not shown: M13 pIII fragment from residue 247 to the C-terminus (phage display carrier) and any cloning-site junction) SHLVKCAEKEKTFCVNGGECFMVADLSNPSRYLCKCPNEFTGDRCQNYVMASFYKHLGIEFMEAEELY", "test-value": 7.70}
{"binder": "HRG-β1 177-244 V199A on phage (ligand, not shown: M13 pIII fragment from residue 247 to the C-terminus (phage display carrier) and any cloning-site junction) SHLVKCAEKEKTFCVNGGECFMAKDLSNPSRYLCKCPNEFTGDRCQNYVMASFYKHLGIEFMEAEELY", "test-value": 7.57}
{"binder": "HRG-β1 177-244 Y224A on phage (ligand, not shown: M13 pIII C-terminal fragment (from pIII residue 247), the phage display partner) SHLVKCAEKEKTFCVNGGECFMVKDLSNPSRYLCKCPNEFTGDRCQNAVMASFYKHLGIEFMEAEELY", "test-value": 6.06}
{"binder": "HRG-β1 177-244 E215A on phage (ligand, not shown: M13 pIII fragment from residue 247 to the C-terminus (phage display carrier) and any cloning-site junction) SHLVKCAEKEKTFCVNGGECFMVKDLSNPSRYLCKCPNAFTGDRCQNYVMASFYKHLGIEFMEAEELY", "test-value": 7.29}
{"binder": "HRG2: HRG-β1 177-244 displayed on phage, fused to pIII 247 (ligand, phage M13, range 247-C-terminus; Monovalent phage display; also called pHRG2-g3) SHLVKCAEKEKTFCVNGGECFMVKDLSNPSRYLCKCPNEFTGDRCQNYVMASFYKHLGIEFMEAEELYGGSGGGSGSGDFDYEKMANANKGAMTENADENALQSDAKGKLDSVATDYGAAIDGFIGDVSGLANGNGATGDFAGSNSQMAQVGDGDNSPLMNNFRQYLPSLPQSVECRPFVFSAGKPYEFSIDCDKINLFRGVFAFLLYVATFMYVFSTFANILRNKES", "test-value": 7.89}

# input Given the binder HRG-β1 177-244 F229A on phage (ligand, not shown: M13 pIII C-terminal fragment (from pIII residue 247), the phage display partner) SHLVKCAEKEKTFCVNGGECFMVKDLSNPSRYLCKCPNEFTGDRCQNYVMASAYKHLGIEFMEAEELY , what is its reported pEC50?
# output 8.22

# input Given the binder HRG-β1 177-244 G194A on phage (ligand, not shown: M13 pIII C-terminal fragment (from pIII residue 247), the phage display partner) SHLVKCAEKEKTFCVNGAECFMVKDLSNPSRYLCKCPNEFTGDRCQNYVMASFYKHLGIEFMEAEELY , what is its reported pEC50?
# output 6.30
